- Test system: BDF1 mice, P388 leukemia ip, median survival T/C
- test details: NCI In Vivo Anticancer Drug Screen. Data for tumor model P388 Leukemia (intraperitoneal) in B6D2F1 (BDF1) mice
- measurement context: endpoint: median survival time; dose: 25.0 mg/kg/injection; schedule: Q01DX009 (ip); vehicle: saline with Tween-80; higher = longer survival
Inconclusive results and toxic doses are left out.
Would you mind telling me the reported T/C of each entry?

I'd like to know its T/C. The compound in question is CC(C)CN(CC(C)C)C(=O)c1ccc(Cl)c(Cl)c1
91 % of control

I'd like to know its T/C. The compound in question is CC1=NNC(=O)/C1=C\c1ccccc1
103 % of control

I'd like to know its T/C. The compound in question is Cc1cc2nc(Oc3ccccc3)nc(=O)n2c(C)n1
114 % of control
